Molecular target: T1, 4H906-AA
T1 chain: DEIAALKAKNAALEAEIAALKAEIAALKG
Assay: two-hybrid library CCmax;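 further: natural log of median RNA to DNA barcode read ratio; higher means stronger binding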
Conditions: mean of both orientations
QUANTITY_NAME: interaction score
Enter a number only.

DEIAALKAKIAALEAEIAALKAENAALKG [4H780-AA] ... -1.19
DKIAALEAKIAALKAENAALKAEIAALEG [4H2393-AA] ... -1.04
DENAALEAEIAALEAKNAALKAKIAALKG [4H1086-AA] ... -1.8
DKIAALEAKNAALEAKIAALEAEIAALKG [4H2466-AA] ... -1.22

Which measured interaction score value corresponds to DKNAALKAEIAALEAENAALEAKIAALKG [4H3606-AA] ? -1.72

Next record, please: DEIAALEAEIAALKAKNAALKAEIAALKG [4H122-AA] -1.43

Now consider DKIAALKAKIAALKAKNAALKAKNAALKG [4H2944-AA] . -1.83
